Recorded measurements of normalized RNA/DNA level without ligand (log10), one per entry
B1: library; a variant is named by its letters at N, in order (parent)
chain: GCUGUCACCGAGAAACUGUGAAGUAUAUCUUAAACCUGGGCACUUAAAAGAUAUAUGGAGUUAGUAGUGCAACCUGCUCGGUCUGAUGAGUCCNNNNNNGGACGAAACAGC

variants of: B1; experiment: normalized RNA/DNA level without ligand (relative to sTRSVctl = 100) (log10 (% of sTRSVctl)); HEK293T; ligand: cyclic di-GMP (c-di-GMP-II aptamer); higher = less ribozyme self-cleavage, higher mRNA level; conditions: reporter: mCherry (pCS4076), ligand present: no
Answer as a number with no unit attached.

Past entries and their recorded results:
GCUGUCACCGAGAAACUGUGAAGUAUAUCUUAAACCUGGGCACUUAAAAGAUAUAUGGAGUUAGUAGUGCAACCUGCUCGGUCUGAUGAGUCCCUUUAUGGACGAAACAGC [CUUUAU]; 1.58
GCUGUCACCGAGAAACUGUGAAGUAUAUCUUAAACCUGGGCACUUAAAAGAUAUAUGGAGUUAGUAGUGCAACCUGCUCGGUCUGAUGAGUCCCUCGUCGGACGAAACAGC [CUCGUC]; 1.81
GCUGUCACCGAGAAACUGUGAAGUAUAUCUUAAACCUGGGCACUUAAAAGAUAUAUGGAGUUAGUAGUGCAACCUGCUCGGUCUGAUGAGUCCUCGAAGGGACGAAACAGC [UCGAAG]; 1.52
GCUGUCACCGAGAAACUGUGAAGUAUAUCUUAAACCUGGGCACUUAAAAGAUAUAUGGAGUUAGUAGUGCAACCUGCUCGGUCUGAUGAGUCCUAGCCGGGACGAAACAGC [UAGCCG]; 1.79

Form field: reported normalized RNA/DNA level without ligand (log10) of GCUGUCACCGAGAAACUGUGAAGUAUAUCUUAAACCUGGGCACUUAAAAGAUAUAUGGAGUUAGUAGUGCAACCUGCUCGGUCUGAUGAGUCCUGCGGAGGACGAAACAGC [UGCGGA] 1.56

Then this variant: GCUGUCACCGAGAAACUGUGAAGUAUAUCUUAAACCUGGGCACUUAAAAGAUAUAUGGAGUUAGUAGUGCAACCUGCUCGGUCUGAUGAGUCCGCACCGGGACGAAACAGC [GCACCG] 1.72

Try the variant GCUGUCACCGAGAAACUGUGAAGUAUAUCUUAAACCUGGGCACUUAAAAGAUAUAUGGAGUUAGUAGUGCAACCUGCUCGGUCUGAUGAGUCCUUGCCUGGACGAAACAGC [UUGCCU] 1.75

Now this one: GCUGUCACCGAGAAACUGUGAAGUAUAUCUUAAACCUGGGCACUUAAAAGAUAUAUGGAGUUAGUAGUGCAACCUGCUCGGUCUGAUGAGUCCGGGAAGGGACGAAACAGC [GGGAAG] 1.63

Same thing, different variant: GCUGUCACCGAGAAACUGUGAAGUAUAUCUUAAACCUGGGCACUUAAAAGAUAUAUGGAGUUAGUAGUGCAACCUGCUCGGUCUGAUGAGUCCGGACCAGGACGAAACAGC [GGACCA] 1.72
